Several reports have described IC50 for Histone-lysine N-methyltransferase EZH2 (Homo sapiens); a selection of those results is presented here.
Unit nM implied. Number only.

Use these answered entries as a reference point.
>  <molecule>
CCN(c1cc(Cl)cc(C(=O)NCc2c(OC)nn(C)c2C)c1C)[C@H]1CC[C@H](N(C)Cc2cccnc2)CC1

>  <measurement>
10200

$$$$
>  <molecule>
CCN(c1cc(Cl)cc(C(=O)NCc2c[nH]cn2)c1C)C1CCOCC1

>  <measurement>
320

$$$$
>  <molecule>
CCN(c1cc(Cl)cc(C(=O)NCCc2nc3ccccc3[nH]2)c1C)[C@H]1CC[C@H](N(C)C)CC1

>  <measurement>
37100

$$$$

// below: IC50 requested for another molecule
Query string: Query IC50 for CNC(=O)N1CC2CCC(C1)C2[C@]1(C)Oc2c(Cl)cc(C(=O)NCc3c(SC)cc(C)[nH]c3=O)c(C)c2O1 (mixture of isomers)
Result string: 0.55

---

pIC50: −log10 of the molar value.
Several reports have described pIC50 for Histone-lysine N-methyltransferase EZH2 (Homo sapiens, UniProt Q15910); a selection of those results is presented here.

Use these answered entries as a reference point.
>  <molecule>
Cc1cc(C)c(CNC(=O)c2ccc3c(c2)CCC3Oc2ccccc2)c(=O)[nH]1 (stereo not shown)

>  <pIC50>
< 4.30

$$$$
>  <molecule>
Cc1cc(C)c(CNC(=O)c2ccc([C@H](C)Oc3ccccc3C#N)cc2)c(=O)[nH]1

>  <pIC50>
> 6.00

$$$$
>  <molecule>
COC1CC(N2CCC(C3(C)Oc4c(Cl)cc(C(=O)NCc5c(SC)cc(C)[nH]c5=O)c(C)c4O3)CC2)C1 (stereo not shown)

>  <pIC50>
9.24

$$$$
>  <molecule>
Cc1cc(C)c(CNC(=O)c2ccc(C3CCCC3)cc2)c(=O)[nH]1

>  <pIC50>
> 6.00

$$$$
>  <molecule>
CN(CCCNC(=O)Nc1ccc(Oc2ccccc2N)cc1)C[C@H]1O[C@@H](n2cnc3c(N)ncnc32)[C@H](O)[C@@H]1O

>  <pIC50>
< 4.30

$$$$
>  <molecule>
Cc1cc(C(F)(F)F)c(CNC(=O)c2ccc(Oc3ccccc3)cc2)c(=O)[nH]1

>  <pIC50>
4.30 to 5.00

$$$$
>  <molecule>
Cc1cc(C)c(CNC(=O)c2cc(Br)c3c(c2C)OC(C)(C2CC4(CC(N(C)C)C4)C2)O3)c(=O)[nH]1 (stereo not shown)

>  <pIC50>
7.60

$$$$
>  <molecule>
Cc1cc(C)c(CNC(=O)c2c(C)c(-c3c(C)noc3C)n3ncccc23)c(=O)[nH]1

>  <pIC50>
> 7.00

$$$$

Query string: Look up and report pIC50, with Histone-lysine N-methyltransferase EZH2 (Homo sapiens, UniProt Q15910) as system, for Cc1cc(C)c(CNC(=O)c2ccc(N(C)c3ccccc3)cc2)c(=O)[nH]1
Result string: > 6.00

Query string: Look up and report pIC50, with Histone-lysine N-methyltransferase EZH2 (Homo sapiens, UniProt Q15910) as system, for Cc1cc(C)c(CNC(=O)c2ccc(CNc3ccccc3)cc2)c(=O)[nH]1
Result string: 5.00 to 6.00

Query string: Look up and report pIC50, with Histone-lysine N-methyltransferase EZH2 (Homo sapiens, UniProt Q15910) as system, for Cc1cc(C)c(CNC(=O)c2ccc(C(C)Oc3ccccc3)c(F)c2)c(=O)[nH]1 (stereo not shown)
Result string: > 6.00

Query string: Look up and report pIC50, with Histone-lysine N-methyltransferase EZH2 (Homo sapiens, UniProt Q15910) as system, for CCN(c1cc(Cl)cc(C(=O)NCc2ccn(C)n2)c1C)C1CCOCC1
Result string: 4.83

Query string: Look up and report pIC50, with Histone-lysine N-methyltransferase EZH2 (Homo sapiens, UniProt Q15910) as system, for Cc1cc(C)c(CNC(=O)c2ccc(COC(C)C)cc2)c(=O)[nH]1
Result string: < 5.00

---

Several reports have described IC50 for Histone-lysine N-methyltransferase EZH2 (Homo sapiens, UniProt Q15910); a selection of those results is presented here.

Use these answered entries as a reference point.
>  <molecule>
Cc1cc(C)c(CNC(=O)c2ccc(C(C)OC3CCCCC3)cc2)c(=O)[nH]1 (stereo not shown)

>  <attribute.measured>
IC50

>  <measurement>
< 1 µM

$$$$
>  <molecule>
COc1cc(C)[nH]c(=O)c1CNC(=O)c1c(C)c(C(C)C2CCN(C(=O)C(F)(F)F)CC2)n2ncccc12 (stereo not shown)

>  <attribute.measured>
IC50

>  <measurement>
< 0.1 µM

$$$$
>  <molecule>
Cc1cccc(-c2ccc(NC(=O)NCCCN(C)C[C@H]3O[C@@H](n4cnc5c(N)ncnc54)[C@H](O)[C@@H]3O)cc2)c1

>  <attribute.measured>
IC50

>  <measurement>
> 50 µM

$$$$
>  <molecule>
Cc1cc(C)c(CNC(=O)c2ccc(S(=O)(=O)c3ccccc3)cc2)c(=O)[nH]1

>  <attribute.measured>
IC50

>  <measurement>
10 to 50 µM

$$$$

Query string: Query IC50 for CN[C@H]1CC[C@H](C2(C)Oc3c(Cl)cc(C(=O)NCc4c(C)cc(C)[nH]c4=O)c(C)c3O2)CC1 (relative stereo)
Result string: 0.017 µM

Query string: Query IC50 for Cc1cc(C)c(CNC(=O)c2ccc(CN3CCCCC3)cc2C)c(=O)[nH]1
Result string: 1 to 10 µM

Query string: Query IC50 for Cc1cc(C)c(CNC(=O)c2ccc(Oc3ccccc3C#N)c(Cl)c2)c(=O)[nH]1
Result string: 1 to 10 µM

---

Several reports have described IC50 for Histone-lysine N-methyltransferase EZH2 (Homo sapiens); a selection of those results is presented here.
Unit nM implied. Number only.

Use these answered entries as a reference point.
>  <molecule>
CCN(c1cc(-c2ccc3c(c2)CCC3N2CCOCC2)c(Cl)c(C(=O)NCc2c(C)cc(C)[nH]c2=O)c1C)C1CCOCC1 (stereo not shown)

>  <attribute.measured>
IC50

>  <measurement>
0.63

$$$$
>  <molecule>
Cc1cc(C)c(CNC(=O)c2cc(C)c3c(c2C)O[C@@](C)([C@H]2CC[C@H](N(C)C)CC2)O3)c(=O)[nH]1 (single isomer, unassigned)

>  <attribute.measured>
IC50

>  <measurement>
8

$$$$

// below: IC50 requested for another molecule
Query string: Look up and report IC50, with Histone-lysine N-methyltransferase EZH2 (Homo sapiens) as system, for CCN(c1cc(Cl)cc(C(=O)NCCc2nccn2C)c1C)[C@H]1CC[C@H](N(C)C)CC1
Result string: 12200

---

Several reports have described IC50 for Histone-lysine N-methyltransferase EZH2 (Homo sapiens, UniProt Q15910); a selection of those results is presented here.
Unit nM implied. Number only.

Use these answered entries as a reference point.
>  <compound>
CCN(c1cc(Cl)cc(C(=O)NCc2c(C)n(C)[nH]c2=O)c1C)[C@H]1CC[C@H](N(C)C(C)c2cccnc2)CC1 (stereo partly shown)

>  <IC50 (nM)>
1290

$$$$
>  <compound>
Cc1cc(C)c(CNC(=O)c2cc(Br)c3c(c2C)OC(C)(C2CCOC2)O3)c(=O)[nH]1 (stereo not shown)

>  <IC50 (nM)>
24

$$$$
>  <compound>
Cc1cc(C)c(CNC(=O)c2cc(C3=CCN(C)CC3)c3c(c2C)OC(C)([C@H]2CC[C@H](N(C)C)CC2)O3)c(=O)[nH]1 (relative stereo)

>  <IC50 (nM)>
19

$$$$
>  <compound>
CCN(c1cc(Cl)cc(C(=O)NCc2c(C)ccn3ccnc23)c1C)[C@H]1CC[C@H](N(C)C)CC1

>  <IC50 (nM)>
1380

$$$$

Query string: Look up and report IC50, with Histone-lysine N-methyltransferase EZH2 (Homo sapiens, UniProt Q15910) as system, for Cc1cc(C)c(CNC(=O)c2cc(Br)c3c(c2C)OC(C)(CN2CCNCC2)O3)c(=O)[nH]1 (stereo not shown)
Result string: 27

---

Several reports have described pIC50 for Histone-lysine N-methyltransferase EZH2 (Homo sapiens, UniProt Q15910); a selection of those results is presented here.
pIC50: −log10 of the molar value.

Use these answered entries as a reference point.
>  <molecule>
Cc1cc(C)c(CNC(=O)c2ccc(OCc3ccccc3)cc2)c(=O)[nH]1

>  <measurement>
5.00 to 6.00

$$$$
>  <molecule>
Cc1cc(C)c(CNC(=O)c2ccc(C(C)Oc3ccccc3)nn2)c(=O)[nH]1 (centres unmarked)

>  <measurement>
5.00 to 6.00

$$$$
>  <molecule>
Cc1cc(C)c(CNC(=O)c2ccc(C(C)Oc3ccccc3C)cc2)c(=O)[nH]1 (centres unmarked)

>  <measurement>
> 6.00

$$$$
>  <molecule>
CCN(c1cc(Cl)cc(C(=O)NCc2c(OC)n(C)[nH]c2=O)c1C)[C@H]1CC[C@H](N(C)C)CC1

>  <measurement>
7.68

$$$$
>  <molecule>
Cc1cc(C)c(CNC(=O)c2cc(Br)c3c(c2C)OC(C)(CN2CCC(N(C)C)CC2)O3)c(=O)[nH]1 (centres unmarked)

>  <measurement>
8.10

$$$$

Query string: Look up and report pIC50, with Histone-lysine N-methyltransferase EZH2 (Homo sapiens, UniProt Q15910) as system, for Cc1cc(C)c(CNC(=O)c2ccc(C(C)OC3CCOC3)cc2)c(=O)[nH]1 (centres unmarked)
Result string: > 6.00

Query string: Look up and report pIC50, with Histone-lysine N-methyltransferase EZH2 (Homo sapiens, UniProt Q15910) as system, for Cc1cc(C)c(CNC(=O)c2ccc(C(C)C)cc2C)c(=O)[nH]1
Result string: 5.00 to 6.00

Query string: Look up and report pIC50, with Histone-lysine N-methyltransferase EZH2 (Homo sapiens, UniProt Q15910) as system, for CCN(c1cc(Cl)cc(C(=O)NCc2c(N3CCCC3)n(C)[nH]c2=O)c1C)[C@H]1CC[C@H](N(C)C)CC1
Result string: 7.74
